biological target: Aryl hydrocarbon receptor (Homo sapiens) (UniProt P35869); assay: ATG_Ahr_CIS: Attagene CIS-FACTORIAL HepG2 Assay for human Aryl Hydrocarbon Receptor (Ahr) (AID 2282930); details: HepG2 AhR cis-factorial reporter transcription; actives raise or lower the signal
Sequence (P35869 whole entry, looked up): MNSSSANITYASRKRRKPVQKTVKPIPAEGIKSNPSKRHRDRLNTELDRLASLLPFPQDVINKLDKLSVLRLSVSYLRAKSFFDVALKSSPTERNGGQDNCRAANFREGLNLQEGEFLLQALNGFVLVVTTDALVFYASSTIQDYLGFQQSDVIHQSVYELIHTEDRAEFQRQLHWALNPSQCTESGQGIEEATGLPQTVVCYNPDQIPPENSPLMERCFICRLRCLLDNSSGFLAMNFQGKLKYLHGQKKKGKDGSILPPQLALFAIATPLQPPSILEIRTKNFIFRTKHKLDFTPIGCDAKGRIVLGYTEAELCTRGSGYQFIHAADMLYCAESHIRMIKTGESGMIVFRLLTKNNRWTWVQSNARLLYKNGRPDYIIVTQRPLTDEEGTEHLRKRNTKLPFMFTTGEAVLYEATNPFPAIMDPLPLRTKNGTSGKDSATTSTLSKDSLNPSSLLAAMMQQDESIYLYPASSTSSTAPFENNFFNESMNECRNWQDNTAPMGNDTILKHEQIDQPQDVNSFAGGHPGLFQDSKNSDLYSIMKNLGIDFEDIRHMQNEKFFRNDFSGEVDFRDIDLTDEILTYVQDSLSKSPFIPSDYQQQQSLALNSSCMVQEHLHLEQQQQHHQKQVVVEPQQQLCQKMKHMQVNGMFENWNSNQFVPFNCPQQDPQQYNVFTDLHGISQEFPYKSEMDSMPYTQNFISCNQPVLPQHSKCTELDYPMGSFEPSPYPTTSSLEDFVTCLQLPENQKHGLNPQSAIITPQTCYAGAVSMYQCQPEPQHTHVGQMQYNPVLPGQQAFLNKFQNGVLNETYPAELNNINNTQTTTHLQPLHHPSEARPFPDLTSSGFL
Active and inactive are the calls of the source. The calls were made as follows: active = hit-call score of the fitted dose curve at least 0.9, where 1 is the maximum; inactive = score below 0.9.
Labels: YES (active), NO (inactive)

MOLECULE: CCCC=NO
DISCRETE LABEL: NO
//
MOLECULE: CCCCCCCCCCCC#N
DISCRETE LABEL: NO
//
MOLECULE: CCC[N+](=O)[O-]
DISCRETE LABEL: YES
//
MOLECULE: [CH3][Sn]([CH3])([Cl])[Cl]
DISCRETE LABEL: NO
//
MOLECULE: CC1OC(C)OC(C)O1 (stereo unspecified)
DISCRETE LABEL: NO
//
MOLECULE: CC(C)CCCCCCCOP(=O)(Oc1ccccc1)Oc1ccccc1
DISCRETE LABEL: NO
//
MOLECULE: O=C(NC(=O)c1c(F)cccc1F)Nc1ccc(Oc2ccc(C(F)(F)F)cc2Cl)cc1F
DISCRETE LABEL: YES
//
MOLECULE: CCCCOC(=O)CCC(=O)OCCCC
DISCRETE LABEL: NO
//
MOLECULE: CN1C[C@H](C(=O)N[C@]2(C)O[C@@]3(O)[C@@H]4CCCN4C(=O)[C@H](Cc4ccccc4)N3C2=O)C=C2c3cccc4[nH]cc(c34)C[C@H]21
DISCRETE LABEL: NO
//
MOLECULE: c1ccc2c(c1)CCCC2
DISCRETE LABEL: NO
//
MOLECULE: SCc1ccco1
DISCRETE LABEL: NO

---

biological target: Cellular tumor antigen p53 (Homo sapiens); assay: TOX21_p53_BLA_p4_ratio: Tox21 HCT-116 p53 Agonism Beta-lactamase Assay, Ratio, Phase 4 (AID 2283601)
Inconclusive results are not listed. Activity calls are given as the source filed them. How the source made its calls: active means hit-call score of the fitted dose curve at least 0.9, where 1 is the maximum; inconclusive means response in the unintended direction; inactive means score below 0.9.
Labels: 1 = active, 0 = inactive

MOLECULE: O=P(O)(Oc1ccccc1)Oc1ccccc1
DISCRETE LABEL: 0
--
MOLECULE: CCOP(=O)(OCC)OCC
DISCRETE LABEL: 0
--
MOLECULE: CC(C)NCC(O)c1ccc([N+](=O)[O-])cc1 (stereo not given)
DISCRETE LABEL: 0
--
MOLECULE: O=P(O)(O)C(Cl)(Cl)P(=O)(O)O
DISCRETE LABEL: 0
--
MOLECULE: CNP(=O)(OC)Oc1ccc(C(C)(C)C)cc1Cl (stereo not given)
DISCRETE LABEL: 0
--
MOLECULE: COc1ccc(C=O)cc1O
DISCRETE LABEL: 0
--
MOLECULE: Nc1cc(Cl)ccc1O
DISCRETE LABEL: 1
--
MOLECULE: NCC1(CC(=O)O)CCCCC1
DISCRETE LABEL: 0
--
MOLECULE: Clc1ccc(C2(Cn3cncn3)OCCO2)c(Cl)c1
DISCRETE LABEL: 0
--
MOLECULE: CC(C)OC(=O)Cc1ccccc1
DISCRETE LABEL: 0
--
MOLECULE: [O]=[Cd]
DISCRETE LABEL: 0
--
MOLECULE: CC(=O)O[C@H]1C[C@H](O[C@H]2[C@@H](O)C[C@H](O[C@H]3[C@@H](O)C[C@H](O[C@H]4CC[C@@]5(C)[C@H](CC[C@@H]6[C@@H]5C[C@@H](O)[C@]5(C)[C@@H](C7=CC(=O)OC7)CC[C@]65O)C4)O[C@@H]3C)O[C@@H]2C)O[C@H](C)[C@H]1O[C@@H]1O[C@H](CO)[C@@H](O)[C@H](O)[C@H]1O
DISCRETE LABEL: 0
--
MOLECULE: Oc1c(Cl)c(Cl)cc(Cl)c1Cl
DISCRETE LABEL: 1
--
MOLECULE: N#CC(C#N)=Cc1cc(O)c(O)c(O)c1
DISCRETE LABEL: 0
--
MOLECULE: S=C=Nc1cccc2ccccc12
DISCRETE LABEL: 1

---

biological target: Cellular tumor antigen p53 (Homo sapiens); experiment: TOX21_p53_BLA_p5_ratio: Tox21 HCT-116 p53 Agonism Beta-lactamase Assay, Ratio, Phase 5 (AID 2283599)
Results filed as inconclusive are left out. The source made the active and inactive calls. How the source made its calls: active means hit-call score of the fitted dose curve at least 0.9, where 1 is the maximum; inconclusive means response in the unintended direction; inactive means score below 0.9.
Labels: active, inactive

COMPOUND: C=CC(=O)OCCN(C)C
DISCRETE LABEL: inactive
--
COMPOUND: N[C@@H]1C[C@H]1c1ccccc1
DISCRETE LABEL: inactive
--
COMPOUND: BrCC(Br)(Br)Br
DISCRETE LABEL: inactive
--
COMPOUND: CCCCCc1cc(O)c2c(c1)OC(C)(C)[C@@H]1CCC(C)=C[C@@H]21
DISCRETE LABEL: active
--
COMPOUND: C[C@@H]1CC[C@@]2(OC1)O[C@H]1[C@@H](O)[C@H]3[C@@H]4CC[C@H]5C[C@@H](O[C@@H]6O[C@H](CO)[C@H](O[C@@H]7O[C@H](CO)[C@@H](O)[C@H](O[C@@H]8OC[C@@H](O)[C@H](O)[C@H]8O)[C@H]7O[C@@H]7O[C@H](CO)[C@@H](O)[C@H](O[C@@H]8O[C@H](CO)[C@@H](O)[C@H](O)[C@H]8O)[C@H]7O)[C@H](O)[C@H]6O)[C@H](O)C[C@]5(C)[C@H]4CC[C@]3(C)[C@H]1[C@@H]2C
DISCRETE LABEL: active
--
COMPOUND: O=[N+]([O-])c1ccccc1-c1ccccc1
DISCRETE LABEL: inactive
--
COMPOUND: O=CNC(N1CCN(C(NC=O)C(Cl)(Cl)Cl)CC1)C(Cl)(Cl)Cl (stereo unspecified)
DISCRETE LABEL: inactive
--
COMPOUND: O=C1C(=O)c2cccc3cccc1c23
DISCRETE LABEL: inactive
--
COMPOUND: CC(C)CCCCCCCOC(=O)c1ccccc1C(=O)OCCCCCCCC(C)C
DISCRETE LABEL: inactive
--
COMPOUND: CCCCNP(N)(N)=S
DISCRETE LABEL: inactive
--
COMPOUND: CCC(=O)O[C@](Cc1ccccc1)(c1ccccc1)[C@H](C)CN(C)C
DISCRETE LABEL: inactive

---

assay: ATG_E_Box_CIS: Attagene CIS-FACTORIAL HepG2 Assay for human Enhancer Box (E-box) (AID 2282936); conditions: HepG2 E-box cis-reporter transcription, actives raise or lower the signal
Active and inactive are the calls of the source. Rule for the calls: active = hit-call score of the fitted dose curve at least 0.9, where 1 is the maximum; inactive = score below 0.9.
Labels: active, inactive

COMPOUND: CNC(=O)Oc1cc(C)c(SC)c(C)c1
DISCRETE LABEL: inactive
--
COMPOUND: CCCCOC(=O)CCC(=O)OCCCC
DISCRETE LABEL: inactive
--
COMPOUND: NNc1ccccc1
DISCRETE LABEL: inactive
--
COMPOUND: Cc1cc(C)c(C2=C(OC(=O)CC(C)(C)C)C3(CCCC3)OC2=O)c(C)c1
DISCRETE LABEL: inactive
--
COMPOUND: C[C@]12CC[C@H](O)C[C@H]1CC[C@@H]1[C@@H]2C[C@@H](O)[C@]2(C)[C@@H](C3=CC(=O)OC3)CC[C@]12O
DISCRETE LABEL: inactive
--
COMPOUND: COC(=O)COc1ccc(Cl)cc1Cl
DISCRETE LABEL: inactive
--
COMPOUND: CCOP(=O)(OCC)Oc1ccc([N+](=O)[O-])cc1
DISCRETE LABEL: inactive
--
COMPOUND: CCN(CC)C(=S)S
DISCRETE LABEL: inactive
--
COMPOUND: CCOC(=O)NC(=S)Nc1ccccc1NC(=S)NC(=O)OCC
DISCRETE LABEL: inactive
--
COMPOUND: Cc1ccc(N(SC(F)(Cl)Cl)S(=O)(=O)N(C)C)cc1
DISCRETE LABEL: inactive
--
COMPOUND: O=C(O)c1cc[c]([Hg][Cl])cc1
DISCRETE LABEL: inactive
--
COMPOUND: CC(Cc1ccc(C(C)(C)C)cc1)CN1C[C@@H](C)O[C@@H](C)C1 (some centres undefined)
DISCRETE LABEL: inactive
--
COMPOUND: O=C(O)CCl
DISCRETE LABEL: inactive
--
COMPOUND: O=[N+]([O-])C=Cc1ccccc1
DISCRETE LABEL: active
--
COMPOUND: COC(C)(C)CCC[C@H](C)C/C=C/C(C)=C/C(=O)OC(C)C
DISCRETE LABEL: inactive
--
COMPOUND: CC=Cc1ccc2c(c1)OCO2
DISCRETE LABEL: inactive
--
COMPOUND: C[N+](C)=CCl
DISCRETE LABEL: inactive
--
COMPOUND: CCCCCCCCCCCCCCCC[N+](C)(C)C
DISCRETE LABEL: active
--
COMPOUND: C#CC1(O)CCCCC1
DISCRETE LABEL: inactive
--
COMPOUND: CCCCCCC1CCOC1=O (centres undefined)
DISCRETE LABEL: inactive
--
COMPOUND: Cl/C=C\CCl
DISCRETE LABEL: inactive
--
COMPOUND: CSc1nc(N=[N+]=[N-])nc(NC(C)C)n1
DISCRETE LABEL: inactive
--
COMPOUND: N#CCCCCC#N
DISCRETE LABEL: inactive
--
COMPOUND: CC(C)CCCCCCCOP(=O)(Oc1ccccc1)Oc1ccccc1
DISCRETE LABEL: inactive
--
COMPOUND: O=P1(NCCCl)OCCCN1CCCl (centres undefined)
DISCRETE LABEL: inactive
--
COMPOUND: CCC1CCC(=O)O1 (centres undefined)
DISCRETE LABEL: inactive
--
COMPOUND: O=C(O)CCCc1ccc(N(CCCl)CCCl)cc1
DISCRETE LABEL: inactive
--
COMPOUND: N#CC(c1ccccc1)c1ccccc1
DISCRETE LABEL: inactive
--
COMPOUND: CC1(C)C(=O)NC(=O)NC1=O
DISCRETE LABEL: inactive
--
COMPOUND: C=CCN(CC=C)C(=O)C(Cl)Cl
DISCRETE LABEL: inactive
--
COMPOUND: CC(C)(c1cc(Cl)c(O)c(Cl)c1)c1cc(Cl)c(O)c(Cl)c1
DISCRETE LABEL: inactive
--
COMPOUND: O=C(CCl)c1ccccc1
DISCRETE LABEL: active
--
COMPOUND: C=COCCCl
DISCRETE LABEL: inactive
--
COMPOUND: COc1cc(OC)nc(Oc2cccc(Oc3nc(OC)cc(OC)n3)c2C(=O)O)n1
DISCRETE LABEL: inactive
